Source listed as patent US9499550B2.

# System: HCV genotype 1b (Con1) replicon in HUH-7 cells
# MEASUREMENT PROTOCOL: HCV replicon luciferase reporter assay, genotype 1b
# Assay type: cell-based
# SETTINGS: Hepatitis C virus, Huh-7, 72 h, HCV genotype 1b replicon luciferase, 3 days incubation, read-out: LE_1b (EC50, range)
Exercise: for every item that follows, state its recorded EC50.

Known EC50 results, listed for orientation:
STRUCTURE SMILES STRING: C[C@H]1CC/C=C\[C@@H]2C[C@@]2(C(=O)NS(=O)(=O)C2(C)CC2)NC(=O)[C@@H]2C[C@@H](Oc3nc4c(c5ccccc35)OCCC4)CN2C(=O)[C@@H](NC(=O)OC(C)(C)C(C)(F)F)[C@H](C)C1
QUANTITY KIND: EC50
REPORTED: < 5.46 nM
//
STRUCTURE SMILES STRING: CCCOc1cnc(O[C@@H]2C[C@H]3C(=O)N[C@]4(C(=O)NS(=O)(=O)C5(C)CC5)C[C@H]4/C=C\CC[C@H](C)C[C@@H](C)[C@H](NC(=O)OCC4(C)CC4)C(=O)N3C2)c2ccccc12
QUANTITY KIND: EC50
REPORTED: 4.82 to 103 nM
//
STRUCTURE SMILES STRING: COc1ccc2c(O[C@@H]3C[C@H]4C(=O)N[C@]5(C(=O)NS(=O)(=O)C6(C)CC6)C[C@H]5/C=C\CC[C@@H](C)C[C@@H](C)[C@H](NC(=O)OC(C)(C)C)C(=O)N4C3)ncc(N3C[C@@H](C)O[C@@H](C)C3)c2c1
QUANTITY KIND: EC50
REPORTED: < 5.46 nM

Turning now to a further record.
Give me measured EC50, please, for this compound: C[C@@H]1CC/C=C\[C@@H]2C[C@@]2(C(=O)NS(=O)(=O)C2(C)CC2)NC(=O)[C@@H]2C[C@@H](Oc3nc4c(c5ccccc35)OCCC4)CN2C(=O)[C@@H](NC(=O)OC(C)(C)C)[C@H](C)C1 < 5.46 nM

* * *

# Test system: HCV genotype 1b (Con1) replicon in HUH-7 cells
# MEASUREMENT PROTOCOL: HCV replicon luciferase reporter assay, genotype 1b
# Assay type: cell-based
# SETTINGS: Hepatitis C virus, Huh-7, 72 h, HCV genotype 1b replicon luciferase, 3 days incubation, read-out: LE_1b (EC50, range)
Consider the following molecules; for each one, report its EC50.

Dear reader, for each entry below, please note its EC50.
1. CCOc1cc2ccnc(O[C@@H]3C[C@H]4C(=O)N[C@]5(C(=O)NS(=O)(=O)C6CC6)C[C@H]5/C=C\CC[C@@H](C)C[C@@H](CC)[C@H](NC(=O)OC(C)(C)C(C)(F)F)C(=O)N4C3)c2cc1F [Compound 5409]
2. CC[C@@H]1C[C@H](C)CC/C=C\[C@@H]2C[C@@]2(C(=O)NS(=O)(=O)C2(C)CC2)NC(=O)[C@@H]2C[C@@H](Oc3nccc4cc(OC)c(Cl)cc34)CN2C(=O)[C@H]1NC(=O)OC(C)(C)C(F)(F)F [Compound 3222]

1: 0.51 to 1 nM; 2: 1.01 to 5 nM

The following molecules each have a reported value; give each one's EC50.
1. CCOc1cnc(O[C@@H]2C[C@H]3C(=O)N[C@]4(C(=O)NS(=O)(=O)C5CC5)C[C@H]4/C=C\CC[C@@H](C)C[C@@H](C)[C@H](NC(=O)OC(C)(C)C(F)(F)F)C(=O)N3C2)c2cccc(Cl)c12 [Compound 4025]
2. [2H]C([2H])([2H])C(OC(=O)N[C@@H]1C(=O)N2C[C@H](Oc3nnc(OCC)c4ccccc34)C[C@H]2C(=O)N[C@]2(C(=O)NS(=O)(=O)C3(C)CC3)C[C@H]2/C=C\CC[C@@H](C)C[C@H]1C)(C([2H])([2H])[2H])C(F)(F)F [Compound 5033]

< 5.46 nM
< 5.46 nM

* * *

# System: HCV genotype 1b (Con1) replicon in HUH-7 cells
# MEASUREMENT PROTOCOL: HCV replicon luciferase reporter assay, genotype 1b
# Format: cell-based
# SETTINGS: Hepatitis C virus, Huh-7, 72 h, HCV genotype 1b replicon luciferase, 3 days incubation, read-out: LE_1b (EC50, range)
Please go through the items and note down their EC50.

Known EC50 results, listed for orientation:
COMPOUND: [2H]C([2H])([2H])C(OC(=O)N[C@@H]1C(=O)N2C[C@H](Oc3nccc4cc(OC(C)C)ccc34)C[C@H]2C(=O)N[C@]2(C(=O)NS(=O)(=O)C3CC3)C[C@H]2/C=C\CC[C@H](C)C[C@H]1C)(C([2H])([2H])[2H])C([2H])([2H])[2H] [Compound 5154]
EC50: 4.82 to 103 nM
--
COMPOUND: [2H]C([2H])([2H])C(OC(=O)N[C@@H]1C(=O)N2C[C@H](Oc3nn(CC)c(=O)c4ccccc34)C[C@H]2C(=O)N[C@]2(C(=O)NS(=O)(=O)C3(C)CC3)C[C@H]2/C=C\CC[C@@H](C)C[C@H]1C)(C([2H])([2H])[2H])C(F)(F)F [Compound 5055]
EC50: < 5.46 nM
--
COMPOUND: CC[C@@H]1C[C@H](C)CC/C=C\[C@@H]2C[C@@]2(C(=O)NS(=O)(=O)C2(C)CC2)NC(=O)[C@@H]2C[C@@H](Oc3nccc4c5c(ccc34)OCCO5)CN2C(=O)[C@H]1NC(=O)OC(C)(C)C(F)F [Compound 5535]
EC50: 1.01 to 5 nM

We next turn to a different compound, shown below.
Answer with reported EC50 of C[C@@H]1CC/C=C\[C@@H]2C[C@@]2(C(=O)NS(=O)(=O)C2CC2)NC(=O)[C@@H]2C[C@@H](Oc3nccc4c5c(ccc34)OC(F)(F)O5)CN2C(=O)[C@@H](NC(=O)OCC2(C)CC2)[C@H](C)C1 [Compound 5272] < 5.46 nM

* * *

# Test system: HCV genotype 1b (Con1) replicon in HUH-7 cells
# MEASUREMENT PROTOCOL: HCV replicon luciferase reporter assay, genotype 1b
# Format: cell-based
# SETTINGS: Hepatitis C virus, Huh-7, 72 h, HCV genotype 1b replicon luciferase, 3 days incubation, read-out: LE_1b (EC50, range)
pEC50: −log10 of the molar value.
Exercise: for every item that follows, state its recorded pEC50.

Consider the reported pEC50 for these compounds:
COMPOUND: C[C@@H]1CC/C=C\[C@@H]2C[C@@]2(C(=O)NS(=O)(=O)C2(C)CC2)NC(=O)[C@@H]2C[C@@H](Oc3ncc(OC4CC4)c4ccccc34)CN2C(=O)[C@@H](NC(=O)OC(C)(C)C(F)(F)F)[C@H](C)C1 [Compound 4056]
REPORTED: > 8.26
--
COMPOUND: CCCOc1cnc(O[C@@H]2C[C@H]3C(=O)N[C@]4(C(=O)NS(=O)(=O)C5CC5)C[C@H]4/C=C\CC[C@H](C)C[C@@H](C)[C@H](NC(=O)O[C@@H]4C[C@@H]5C[C@@H]5C4)C(=O)N3C2)c2ccccc12 [Compound 5092]
REPORTED: 6.99 to 8.32
--
COMPOUND: C[C@@H]1CC/C=C\[C@@H]2C[C@@]2(C(=O)NS(=O)(=O)C2CC2)NC(=O)[C@@H]2C[C@@H](Oc3nccc4c5c(ccc34)N(C)CCO5)CN2C(=O)[C@@H](NC(=O)OC(C)(C)C(F)(F)F)[C@H](C)C1 [Compound 5278]
REPORTED: > 8.26
--
COMPOUND: CC[C@@H]1C[C@H](C)CC/C=C\[C@@H]2C[C@@]2(C(=O)NS(=O)(=O)C2(C)CC2)NC(=O)[C@@H]2C[C@@H](Oc3nccc4cc(OC)c(F)cc34)CN2C(=O)[C@H]1NC(=O)N1CCOCC1 [Compound 4333]
REPORTED: 7.46 to 8.30
--
COMPOUND: C[C@@H]1CC/C=C\[C@@H]2C[C@@]2(C(=O)NS(=O)(=O)C2CC2)NC(=O)[C@@H]2C[C@@H](Oc3nccc4c5c(ccc34)N(C)CCO5)CN2C(=O)[C@@H](NC(=O)NC(C)(C)C)[C@H](C)C1 [Compound 5284]
REPORTED: > 8.26

Can you give me pEC50 for all of these, one by one?
1. [2H]C([2H])([2H])C(OC(=O)N[C@@H]1C(=O)N2C[C@H](Oc3nc(-c4ccc(OC(C)C)nc4)cc4cc(OC)ccc34)C[C@H]2C(=O)N[C@]2(C(=O)NS(=O)(=O)C3(C)CC3)C[C@H]2/C=C\CC[C@@H](C)C[C@H]1C)(C([2H])([2H])[2H])C(F)(F)F [Compound 5227]
2. COc1cc2ccnc(O[C@@H]3C[C@H]4C(=O)N[C@]5(C(=O)NS(=O)(=O)C6(C)CC6)C[C@H]5/C=C\CC[C@@H](C)C[C@@H](C)[C@H](NC(=O)OC(C)(C)C(F)(F)F)C(=O)N4C3)c2cc1F [Compound 4039]
3. COc1cc2c(OC)cnc(O[C@@H]3C[C@H]4C(=O)N[C@]5(C(=O)NS(=O)(=O)C6CC6)C[C@H]5/C=C\CC[C@@H](C)C[C@@H](C)[C@H](NC(=O)OC(C)(C)C)C(=O)N4C3)c2cc1F [Compound 4074]

1. > 8.26
2. > 8.26
3. > 8.26
